The reported numbers originate from the supplement of paper PMC6757056.

Quick reference: normalized RNA/DNA level with ligand (log10) of the listed items.
B1: library; a variant is named by its letters at N, in order (parent)
chain: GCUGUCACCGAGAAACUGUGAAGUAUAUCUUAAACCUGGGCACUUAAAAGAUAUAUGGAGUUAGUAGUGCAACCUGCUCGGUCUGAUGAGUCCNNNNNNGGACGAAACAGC

# Variants of: B1
# experimental_protocol: normalized RNA/DNA level with ligand (relative to sTRSVctl = 100) (log10 (% of sTRSVctl)); HEK293T; ligand: cyclic di-GMP (c-di-GMP-II aptamer); ligand concentration (+) RNA-Seq: 1 mM; higher = less ribozyme self-cleavage, higher mRNA level
# condition_details: reporter: mCherry (pCS4076), ligand present: yes
Give the figure only, with no unit attached.

Examples from the recorded data:
{"mutant_code": "UAGAGG", "val": 1.82}
{"mutant_code": "ACAUAA", "val": 1.63}
{"mutant_code": "CCCGGA", "val": 1.72}
{"mutant_code": "AAACAG", "val": 1.73}
{"mutant_code": "AACGCU", "val": 1.86}

Q. Returns the measured normalized RNA/DNA level with ligand (log10) for the input variant. Input: `UGUAGA`
A. 1.82

Q. Returns the measured normalized RNA/DNA level with ligand (log10) for the input variant. Input: `AGGGAA`
A. 1.53
